System: genotype 1b (Con-1) HCV replicon
Experiment: HCV replicon luciferase assay
Format: cell-based
Details: Hepatitis C virus, 72 h; genotype 1b replicon, Huh-7, Renilla luciferase, 3 days; read-out: EC50 1b (class)
pEC50: −log10 of the molar value.
test_readout: pEC50

Batch request: pEC50 for each of the following compounds.
1. CCN(CC)c1cc2oc(-c3ccc(Oc4cccc(F)c4)cc3)c(C(=O)NC)c2cc1-c1ccc(OC)c(C(N)=O)c1 [Compound 1010]
2. CCNc1cc2oc(-c3ccc(Oc4cccc(F)c4)cc3)c(C(=O)NC)c2cc1-c1cccc(C(=O)NC(C)(C)CC(=O)O)c1 [Compound 1013]
3. CNC(=O)c1c(-c2ccc(Oc3ccccc3)cc2)oc2nc(CCC(F)(F)F)c(-c3cccc(C(=O)NC(C)(C)C)c3)cc12 [Compound 2001]
4. CCCCOc1ccc(-c2oc3nc(CCC(F)(F)F)c(-c4cccc(C(=O)NC(C)(C)C)c4)cc3c2C(=O)NC)cc1 [Compound 3001]

Return:
["6.00 to 7.00", "6.00 to 7.00", "> 7.00", "> 7.00"]

Batch request: pEC50 for each of the following compounds.
1. CCN(c1cc2oc(-c3ccc(Oc4ccc(F)cc4)cc3)c(C(=O)NC)c2cc1-c1cccc(C(=O)NC(C)(C)C)c1)S(C)(=O)=O [Compound 1002]
2. CNC(=O)c1c(-c2ccc(Sc3ccccc3)cc2)oc2nc(CCC(F)(F)F)c(-c3cccc(C(=O)NC(C)(C)C)c3)cc12 [Compound 5001]
3. CNC(=O)c1c(-c2ccc(N3CCCC3)cc2)oc2nc(CCC(F)(F)F)c(-c3cccc(C(=O)NC(C)(C)C)c3)cc12 [Compound 4001]
4. CNC(=O)c1c(-c2ccc(Oc3cccnc3)cc2)oc2nc(CCC(F)(F)F)c(-c3cccc(C(=O)NC(C)(C)C)c3)cc12 [Compound 2011]
5. CNC(=O)c1c(-c2ccc(Oc3ccc(F)cc3)cc2)oc2nc(CCC(F)(F)F)c(-c3cccc(C(=O)NC(C)(C)C)c3)cc12 [Compound 2004]

Return:
1. > 7.00
2. 6.00 to 7.00
3. < 6.00
4. > 7.00
5. > 7.00

Batch request: pEC50 for each of the following compounds.
1. CNC(=O)c1c(-c2ccc(OCC(F)(F)F)cc2)oc2nc(CCC(F)(F)F)c(-c3cccc(C(=O)NC(C)(C)C)c3)cc12 [Compound 3002]
2. CCOC(=O)c1c(-c2ccc(Oc3cccc(O)c3)cc2)oc2cc([N+](=O)[O-])c(O)cc12 [Compound 1014]

Return:
1. > 7.00
2. < 6.00

Batch request: pEC50 for each of the following compounds.
1. CNC(=O)c1c(-c2ccc(Oc3ccc(C(=O)O)cc3)cc2)oc2nc(CCC(F)(F)F)c(-c3cccc(C(=O)NC(C)(C)C)c3)cc12 [Compound 2013]
2. CNC(=O)c1c(-c2ccc(Oc3ccccn3)cc2)oc2nc(CCC(F)(F)F)c(-c3cccc(C(=O)NC(C)(C)C)c3)cc12 [Compound 2012]

Return:
< 6.00
< 6.00

* * *

System: genotype 1b (Con-1) HCV replicon
Test: HCV replicon luciferase assay
Format: cell-based
Details: Hepatitis C virus, 72 h; genotype 1b replicon, Huh-7, Renilla luciferase, 3 days; read-out: EC50 1b (class)
test_readout: EC50

| compound | EC50 |
| --- | --- |
| CNC(=O)c1c(-c2ccc(Oc3ccccc3C)cc2)oc2nc(CCC(F)(F)F)c(-c3cccc(C(=O)NC(C)(C)C)c3)cc12 | < 100 nM |
| [2H]C([2H])([2H])C(NC(=O)c1cc(-c2cc3c(C(=O)NC)c(-c4ccc(Oc5cccc(F)c5)cc4)oc3cc2N(CC)S(C)(=O)=O)ccc1OC)(C([2H])([2H])[2H])C([2H])([2H])[2H] | < 100 nM |
| CCN(CC)c1cc2oc(-c3ccc(Oc4cccc(F)c4)cc3)c(C(=O)NC)c2cc1-c1ccc(O)c(C(N)=O)c1 | < 100 nM |
| CNC(=O)c1c(-c2ccc(Oc3cccc(F)c3)cc2)oc2nc(CCC(F)(F)F)c(-c3ccc(OC)c(C(=O)NC4(c5ncccn5)CC4)c3)cc12 | < 100 nM |
| CCN(c1cc2oc(-c3ccc(Oc4cccc(F)c4)cc3)c(C(=O)NC)c2cc1-c1cccc(C(=O)NC(C)(C)C)c1)S(C)(=O)=O | < 100 nM |
| CNC(=O)c1c(-c2ccc(C(C#N)C(N)=O)cc2)oc2nc(CCC(F)(F)F)c(-c3cccc(C(=O)NC(C)(C)C)c3)cc12 (stereo not drawn) | 100 to 1000 nM |

Batch request: EC50 for each of the following compounds.
1. CCNc1nc2oc(-c3ccc(C)cc3)c(C(=O)NC)c2cc1-c1cccc(C(=O)NC2(C(F)(F)F)CC2)c1
2. CCN(c1cc2oc(-c3ccc(Oc4ccc(OC)cc4)cc3)c(C(=O)NC)c2cc1-c1cccc(C(=O)NC(C)(C)C)c1)S(C)(=O)=O
3. CCN(c1cc2oc(-c3ccc(Oc4cccc(OC)c4)cc3)c(C(=O)NC)c2cc1-c1cccc(C(=O)NC(C)(C)C)c1)S(C)(=O)=O
4. CCN(c1cc2oc(-c3ccc(Oc4ccccc4F)cc3)c(C(=O)NC)c2cc1-c1cccc(C(=O)NC(C)(C)C)c1)S(C)(=O)=O
5. CNC(=O)c1c(-c2ccc(Oc3cccc(F)c3)cc2)oc2cc(N(C)S(C)(=O)=O)c(-c3cccc(C(=O)NCC(F)(F)F)c3)cc12

Return:
< 100 nM
100 to 1000 nM
< 100 nM
< 100 nM
< 100 nM

Enquiry: // Input: CCN(c1cc2oc(-c3ccc(Oc4cccc(F)c4)cc3)c(C(=O)NC)c2cc1-c1cccc(C(N)=O)c1)S(C)(=O)=O . Output its EC50 only.
Return: < 100 nM
